# target_of_assay: Tyrosine-protein kinase JAK2 (Homo sapiens)
# Sequence (O60674 whole entry): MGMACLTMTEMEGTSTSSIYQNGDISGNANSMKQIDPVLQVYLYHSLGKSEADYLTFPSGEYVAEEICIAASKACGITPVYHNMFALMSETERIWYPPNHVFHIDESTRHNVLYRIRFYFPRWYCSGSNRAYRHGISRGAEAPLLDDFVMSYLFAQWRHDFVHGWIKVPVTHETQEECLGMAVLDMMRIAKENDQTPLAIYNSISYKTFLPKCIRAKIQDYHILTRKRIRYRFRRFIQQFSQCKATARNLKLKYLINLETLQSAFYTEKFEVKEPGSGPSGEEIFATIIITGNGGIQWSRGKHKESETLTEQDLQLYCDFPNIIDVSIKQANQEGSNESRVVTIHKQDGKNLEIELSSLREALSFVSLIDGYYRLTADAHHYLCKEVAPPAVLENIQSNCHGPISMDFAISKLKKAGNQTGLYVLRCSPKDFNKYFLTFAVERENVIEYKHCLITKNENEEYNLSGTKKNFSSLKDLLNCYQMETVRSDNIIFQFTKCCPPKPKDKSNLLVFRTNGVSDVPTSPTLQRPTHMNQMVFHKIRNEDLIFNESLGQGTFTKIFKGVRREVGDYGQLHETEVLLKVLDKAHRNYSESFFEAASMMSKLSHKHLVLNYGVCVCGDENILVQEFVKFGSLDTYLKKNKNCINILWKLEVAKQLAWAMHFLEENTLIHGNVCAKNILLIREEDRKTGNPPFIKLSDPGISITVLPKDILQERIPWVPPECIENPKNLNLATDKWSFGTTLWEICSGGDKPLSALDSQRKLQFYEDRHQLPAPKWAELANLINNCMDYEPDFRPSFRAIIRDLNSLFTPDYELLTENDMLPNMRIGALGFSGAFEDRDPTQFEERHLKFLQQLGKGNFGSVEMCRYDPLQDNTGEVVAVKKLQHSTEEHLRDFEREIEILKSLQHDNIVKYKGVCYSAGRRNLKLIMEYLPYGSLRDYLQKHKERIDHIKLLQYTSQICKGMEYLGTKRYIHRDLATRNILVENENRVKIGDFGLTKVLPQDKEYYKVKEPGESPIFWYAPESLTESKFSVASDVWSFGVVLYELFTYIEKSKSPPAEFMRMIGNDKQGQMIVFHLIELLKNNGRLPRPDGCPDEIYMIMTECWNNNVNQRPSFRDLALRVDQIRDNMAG
# test_description: Inhibition of JAK2 dependent GM-CSF stimulated STAT3 phosphorylation in human TF-1 cells
readout: IC50

Challenge: Please list IC50 recorded for the compound "[2H]C([2H])([2H])NC(=O)c1nnc(NC(=O)C2CC2)cc1Nc1cccc(C(=O)Nc2ccc(-c3ncn(C4CC4)n3)cc2)c1OC"
Response given: 2.67 µM

* * *

# test_description: Stability in human liver microsomes assessed as parent compound remaining measured after 60 mins
# Format: ADME, Microsome
# test_conditions: read-out: Stability
Please note: remaining at 1 h exactly at 40% is false. Only values below 40% get true.

Below, 8 molecules whose answers are already recorded.
>>> classification("[2H]C([2H])([2H])NC(=O)c1nnc(Nc2ccccn2)cc1Nc1cccc(C(=O)Nc2ccc(N3CCCCC3=O)cc2)c1OC")
"false"
>>> classification("[2H]C([2H])([2H])NC(=O)c1nnc(NC(=O)C2CC2)cc1Nc1cccc(C(=O)Nc2ccc(N3CCCCCC3=O)cc2)c1OC")
"true"
>>> classification("[2H]C([2H])([2H])NC(=O)c1nnc(NC(=O)C2CC2)cc1Nc1cccc(C(=O)Nc2ccc(-c3ccc(F)c(=O)[nH]3)cc2)c1OC")
"false"
>>> classification("[2H]C([2H])([2H])NC(=O)c1nnc(NC(=O)C2CC2)cc1Nc1cccc(C(=O)Nc2ccc(N3CCCCC3=O)cc2F)c1OC")
"true"
>>> classification("[2H]C([2H])([2H])NC(=O)c1nnc(NC(=O)C2CC2)cc1Nc1cccc(C(=O)Nc2ccc(N3CCCCC3=O)cc2)c1OC")
"false"
>>> classification("[2H]C([2H])([2H])NC(=O)c1nnc(NC(=O)C2CC2)cc1Nc1cccc(C(=O)Nc2ccc(C3CCCNC3=O)cc2)c1OC (centres undefined)")
"false"
>>> classification("[2H]C([2H])([2H])NC(=O)c1nnc(NC(=O)C2CC2)cc1Nc1cccc(C(=O)Nc2ccc(N3CCCC3=O)cc2)c1OC")
"false"
>>> classification("[2H]C([2H])([2H])NC(=O)c1nnc(NC(=O)C2CC2)cc1Nc1cccc(C(=O)Nc2ccc(-n3cccn3)cc2)c1OC")
"false"

Challenge: Threshold test, remaining at 1 h < 40%: "[2H]C([2H])([2H])NC(=O)c1nnc(NC(=O)C2CC2)cc1Nc1cccc(C(=O)Nc2ccc(N3CCCCS3(=O)=O)cc2)c1OC"
Response given: true

Challenge: I wonder whether "[2H]C([2H])([2H])NC(=O)c1nnc(NC(=O)C2CC2)cc1Nc1cccc(C(=O)Nc2ccc(N3CCCCC3=O)c(Cl)c2)c1OC" has remaining at 1 h below 40%. Can you tell?
Response given: true

Challenge: Quick check: remaining at 1 h of "[2H]C([2H])([2H])NC(=O)c1nnc(NC(=O)C2CC2)cc1Nc1cccc(C(=O)Nc2ccc(-n3ccccc3=O)cc2)c1OC" under 40%?
Response given: false

Challenge: Dear reviewer, please state whether "[2H]C([2H])([2H])NC(=O)c1nnc(NC(=O)C2CC2)cc1Nc1cccc(C(=O)Nc2ccc(N3CCCCC3)cc2)c1OC" has remaining at 1 h strictly beneath 40%.
Response given: true

Challenge: Consider the molecule "[2H]C([2H])([2H])NC(=O)c1nnc(NC(=O)C2CC2)cc1Nc1cccc(C(=O)Nc2ccc(-c3ncn(C4CC4)n3)cc2)c1OC" . Is its remaining at 1 h strictly less than 40%?
Response given: false

* * *

# target_of_assay: Non-receptor tyrosine-protein kinase TYK2 (Homo sapiens)
# Sequence (P29597 whole entry, the tested form may be a part): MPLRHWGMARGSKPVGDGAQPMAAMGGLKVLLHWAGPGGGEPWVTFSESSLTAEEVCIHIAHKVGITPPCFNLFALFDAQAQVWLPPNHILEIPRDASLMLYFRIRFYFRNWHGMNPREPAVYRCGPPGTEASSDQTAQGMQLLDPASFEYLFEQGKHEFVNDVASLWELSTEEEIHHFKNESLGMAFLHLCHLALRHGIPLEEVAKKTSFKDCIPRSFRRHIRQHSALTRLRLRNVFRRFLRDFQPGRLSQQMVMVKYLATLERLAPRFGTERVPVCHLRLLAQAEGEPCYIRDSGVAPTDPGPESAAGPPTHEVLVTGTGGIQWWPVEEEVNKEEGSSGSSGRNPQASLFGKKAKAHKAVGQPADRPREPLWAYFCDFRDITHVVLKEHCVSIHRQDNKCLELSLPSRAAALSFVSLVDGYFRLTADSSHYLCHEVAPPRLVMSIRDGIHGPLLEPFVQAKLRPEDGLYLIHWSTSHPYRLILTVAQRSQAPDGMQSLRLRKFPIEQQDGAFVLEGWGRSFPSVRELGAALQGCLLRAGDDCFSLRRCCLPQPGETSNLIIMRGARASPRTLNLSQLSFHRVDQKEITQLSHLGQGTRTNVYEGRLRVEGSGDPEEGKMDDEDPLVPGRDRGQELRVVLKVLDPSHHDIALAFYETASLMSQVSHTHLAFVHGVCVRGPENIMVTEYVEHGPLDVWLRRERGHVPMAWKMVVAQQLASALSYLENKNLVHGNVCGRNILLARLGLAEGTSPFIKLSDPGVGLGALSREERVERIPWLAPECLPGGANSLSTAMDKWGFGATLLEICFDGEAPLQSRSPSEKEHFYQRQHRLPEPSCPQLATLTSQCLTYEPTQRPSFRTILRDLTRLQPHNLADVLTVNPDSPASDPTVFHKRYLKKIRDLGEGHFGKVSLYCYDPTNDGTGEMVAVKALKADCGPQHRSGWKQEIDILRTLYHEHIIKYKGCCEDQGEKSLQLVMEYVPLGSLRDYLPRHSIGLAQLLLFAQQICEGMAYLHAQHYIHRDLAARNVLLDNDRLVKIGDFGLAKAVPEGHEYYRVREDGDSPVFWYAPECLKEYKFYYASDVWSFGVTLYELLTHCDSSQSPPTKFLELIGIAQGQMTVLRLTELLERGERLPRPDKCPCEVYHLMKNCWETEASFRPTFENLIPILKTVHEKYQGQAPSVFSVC
# test_description: Binding affinity to TYK2 JH2 domain (unknown origin) assessed as melting temperature at 10 uM by thermal shift assay
# test_conditions: tested as the 2H-labelled form
// values below are reported Tm
Use °C as the unit, but write only the number.

Study these solved cases before continuing.
>>> readout_number("CNC(=O)c1nnc(NC(=O)C2CC2)cc1Nc1cccc(C(=O)Nc2ccc(N3CCCCC3)cc2)c1OC")
63.4
>>> readout_number("CNC(=O)c1nnc(NC(=O)C2CC2)cc1Nc1cccc(C(=O)Nc2ccc(-c3cccc(=O)[nH]3)cc2)c1OC")
56.5
>>> readout_number("CNC(=O)c1nnc(NC(=O)C2CC2)cc1Nc1cccc(C(=O)Nc2ccc(N3CCCCS3(=O)=O)cc2)c1OC")
64.8

Now for another entry.
Challenge: Lab note: record Tm of "CNC(=O)c1nnc(NC(=O)C2CC2)cc1Nc1cccc(C(=O)Nc2ccc(-n3cccn3)cc2)c1OC" tested on Non-receptor tyrosine-protein kinase TYK2 (Homo sapiens).
Response given: 61.1

* * *

# test_description: Volume of distribution in mouse at 1 mg/kg, iv
# Type: ADME, organism-based
# test_conditions: in vivo
readout: Vd (L/kg)
Please reply with the bare figure in L/kg and do not write the unit itself.

Challenge: Give the value of Vd reported for the following: "[2H]C([2H])([2H])NC(=O)c1nnc(NC(=O)C2CC2)cc1Nc1cccc(C(=O)Nc2ccc(-c3ncn(C4CC4)n3)cc2)c1OC"
Response given: 1.29

* * *

# target_of_assay: UniProtKB P29597
# test_description: Inhibition of TYK2 dependent IFNalpha-stimulated STAT3 phosphorylation in human Jurkat cells
Reported IC50 values follow for various compounds

>>> result("[2H]C([2H])([2H])NC(=O)c1nnc(NC(=O)C2CC2)cc1Nc1cccc(C(=O)Nc2ccc(N3CCCCC3=O)cc2)c1OC")
"1.4 nM"
>>> result("[2H]C([2H])([2H])NC(=O)c1nnc(NC(=O)C2CC2)cc1Nc1cccc(C(=O)Nc2ccc(N3CCCCC3=O)cc2F)c1OC")
"5.7 nM"
>>> result("[2H]C([2H])([2H])NC(=O)c1nnc(NC(=O)C2CC2)cc1Nc1cccc(C(=O)Nc2ccc(-n3ccnc3)cc2)c1OC")
"51 nM"

Challenge: Using known records, supply IC50 for "[2H]C([2H])([2H])NC(=O)c1nnc(NC(=O)C2CC2)cc1Nc1cccc(C(=O)Nc2cccc(-n3ccccc3=O)c2)c1OC"
Response given: 11 nM

Challenge: Return the recorded IC50 value; entry: "[2H]C([2H])([2H])NC(=O)c1nnc(NC(=O)C2CC2)cc1Nc1cccc(C(=O)Nc2ccc(-c3cccnc3)cc2)c1OC"
Response given: 24 nM

Challenge: Specify measured IC50 for "[2H]C([2H])([2H])NC(=O)c1nnc(NC(=O)C2CC2)cc1Nc1cccc(C(=O)Nc2ccc(-c3ncn(C4CC4)n3)cc2)c1OC" .
Response given: 4.8 nM

* * *

# test_description: MRT (0 to t) in mouse at 1 mg/kg, iv
# Type: ADME, organism-based
# test_conditions: in vivo
readout: MRT last (h)
Field format: number, assumed h, no unit text.

Challenge: Determine from records and report MRT last for "[2H]C([2H])([2H])NC(=O)c1nnc(NC(=O)C2CC2)cc1Nc1cccc(C(=O)Nc2ccc(-c3ncn(C4CC4)n3)cc2)c1OC"
Response given: 2.12

* * *

# target_of_assay: CYP1A2 (Homo sapiens, UniProt P05177)
# Sequence (P05177 whole entry): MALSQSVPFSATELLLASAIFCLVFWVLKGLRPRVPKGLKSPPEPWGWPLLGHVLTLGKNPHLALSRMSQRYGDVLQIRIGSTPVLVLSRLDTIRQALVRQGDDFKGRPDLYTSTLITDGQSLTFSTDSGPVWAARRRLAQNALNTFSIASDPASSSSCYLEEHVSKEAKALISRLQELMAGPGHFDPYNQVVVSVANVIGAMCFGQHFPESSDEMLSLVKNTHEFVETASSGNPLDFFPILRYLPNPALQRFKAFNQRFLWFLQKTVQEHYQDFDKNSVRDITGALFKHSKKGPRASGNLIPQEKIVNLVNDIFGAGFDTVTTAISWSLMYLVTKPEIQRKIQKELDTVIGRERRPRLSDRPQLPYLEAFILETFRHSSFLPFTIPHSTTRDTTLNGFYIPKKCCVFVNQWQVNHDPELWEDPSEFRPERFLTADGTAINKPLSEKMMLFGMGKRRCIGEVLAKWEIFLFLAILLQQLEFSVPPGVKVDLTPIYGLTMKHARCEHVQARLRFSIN
# test_description: Inhibition of CYP1A2 (unknown origin) at 1 uM relative to control
# Type: ADME
readout: inhibition at 1 µM (%)
Report as a plain number; the unit % is understood.

Challenge: Answer with the recorded inhibition at 1 µM for the molecule listed here: "[2H]C([2H])([2H])NC(=O)c1nnc(NC(=O)C2CC2)cc1Nc1cccc(C(=O)Nc2ccc(-c3ncn(C4CC4)n3)cc2)c1OC"
Response given: 1.18

* * *

Reported Tm values for a set of molecules
# target_of_assay: Non-receptor tyrosine-protein kinase TYK2 (Homo sapiens)
# test_description: Binding affinity to TYK2 JH2 domain (unknown origin) assessed as melting temperature at 1 uM by thermal shift assay
# test_conditions: tested as the 2H-labelled form
Quick reminder: number only, in °C, skip the unit.

Would you please look over these solved cases?
>>> readout_number("CNC(=O)c1nnc(NC(=O)C2CC2)cc1Nc1cccc(C(=O)Nc2ccc(-c3ncn(C)n3)cc2)c1OC")
53.8
>>> readout_number("CNC(=O)c1nnc(Nc2ccc(F)cn2)cc1Nc1cccc(C(=O)Nc2ccc(N3CCCCC3=O)cc2)c1OC")
66
>>> readout_number("CNC(=O)c1nnc(NC(=O)C2CC2)cc1Nc1cccc(C(=O)Nc2ccc(N3CCCCCC3=O)cc2)c1OC")
59.6
>>> readout_number("CNC(=O)c1nnc(NC(=O)C2CC2)cc1Nc1cccc(C(=O)Nc2cccc(-n3ccccc3=O)c2)c1OC")
52.9
>>> readout_number("CNC(=O)c1nnc(NC(=O)C2CC2)cc1Nc1cccc(C(=O)Nc2ccc(-n3cccn3)cc2)c1OC")
56.2
>>> readout_number("CNC(=O)c1nnc(NC(=O)C2CC2)cc1Nc1cccc(C(=O)Nc2ccc(-c3ccc(F)c(=O)[nH]3)cc2)c1OC")
55.9
>>> readout_number("CNC(=O)c1nnc(NC(=O)C2CC2)cc1Nc1cccc(C(=O)Nc2ccc(-c3cccc(=O)[nH]3)cc2)c1OC")
52.5
>>> readout_number("CNC(=O)c1nnc(NC(=O)C2CC2)cc1Nc1cccc(C(=O)Nc2ccc(N3CCCCC3=O)c(Cl)c2)c1OC")
60.4

Challenge: In one line, give reported Tm of the entry "CNC(=O)c1nnc(NC(=O)C2CC2)cc1Nc1cccc(C(=O)Nc2ccc(NC(=O)C3CCCC3)cc2)c1OC" .
Response given: 52.7

Challenge: Given "CNC(=O)c1nnc(NC(=O)C2CC2)cc1Nc1cccc(C(=O)Nc2ccc(-n3ccnc3)cc2)c1OC" , respond with its Tm.
Response given: 52.2

Challenge: Retrieve Tm measured for "CCn1cnc(-c2ccc(NC(=O)c3cccc(Nc4cc(NC(=O)C5CC5)nnc4C(=O)NC)c3OC)cc2)n1" and print it.
Response given: 54.9

Challenge: State its Tm: "CNC(=O)c1nnc(NC(=O)C2CC2)cc1Nc1cccc(C(=O)Nc2ccc(N3CCCCC3=O)cc2F)c1OC"
Response given: 56.2

Challenge: Using known records, supply Tm for "CNC(=O)c1nnc(NC(=O)C2CC2)cc1Nc1cccc(C(=O)Nc2ccc(-n3ccccc3=O)cc2)c1OC"
Response given: 56

Challenge: Return the recorded Tm value; entry: "CNC(=O)c1nnc(NC(=O)C2CC2)cc1Nc1cccc(C(=O)Nc2ccc(N3CCCCC3=O)cc2)c1OC"
Response given: 60.6

Challenge: In one line, give reported Tm of the entry "CNC(=O)c1nnc(NC(=O)C2CC2)cc1Nc1cccc(C(=O)Nc2ccc(N3CCCC3=O)cc2)c1OC" .
Response given: 56.5

Challenge: Complete the entry with Tm for "CNC(=O)c1nnc(NC(=O)C2CC2)cc1Nc1cccc(C(=O)Nc2ccc(N3CCCCC3)cc2)c1OC"
Response given: 58.2

Challenge: Look up and state reported Tm for "CNC(=O)c1nnc(NC(=O)C2CC2)cc1Nc1cccc(C(=O)Nc2ccc(-c3cccnc3)cc2)c1OC"
Response given: 54.1

Cited source: ChEMBL document CHEMBL5252617
